- Target: Integrin alpha-4/beta-1 (Homo sapiens, UniProt P05556+P13612)
- Sequence (P05556 whole entry): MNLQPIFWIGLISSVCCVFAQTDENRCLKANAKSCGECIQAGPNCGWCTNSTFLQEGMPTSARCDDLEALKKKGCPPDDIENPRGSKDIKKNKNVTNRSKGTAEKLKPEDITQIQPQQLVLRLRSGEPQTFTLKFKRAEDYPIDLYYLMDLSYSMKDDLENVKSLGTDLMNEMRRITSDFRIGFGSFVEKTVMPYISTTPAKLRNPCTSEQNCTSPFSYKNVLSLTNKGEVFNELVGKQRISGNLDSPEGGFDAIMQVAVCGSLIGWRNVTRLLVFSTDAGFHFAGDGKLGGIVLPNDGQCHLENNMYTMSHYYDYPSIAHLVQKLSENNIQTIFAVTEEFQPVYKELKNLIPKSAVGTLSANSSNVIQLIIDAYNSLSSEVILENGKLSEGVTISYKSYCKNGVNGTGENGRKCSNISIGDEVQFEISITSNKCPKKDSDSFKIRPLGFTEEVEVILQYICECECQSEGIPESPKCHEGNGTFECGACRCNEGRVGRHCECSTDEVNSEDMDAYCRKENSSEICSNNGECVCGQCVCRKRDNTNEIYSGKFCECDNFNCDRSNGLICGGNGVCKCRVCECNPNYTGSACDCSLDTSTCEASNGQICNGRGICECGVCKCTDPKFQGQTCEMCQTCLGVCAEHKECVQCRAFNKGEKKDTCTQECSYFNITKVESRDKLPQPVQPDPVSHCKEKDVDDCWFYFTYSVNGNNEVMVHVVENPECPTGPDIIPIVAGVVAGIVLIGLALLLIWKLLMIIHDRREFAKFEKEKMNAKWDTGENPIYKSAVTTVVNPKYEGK
- Sequence (P13612 whole entry): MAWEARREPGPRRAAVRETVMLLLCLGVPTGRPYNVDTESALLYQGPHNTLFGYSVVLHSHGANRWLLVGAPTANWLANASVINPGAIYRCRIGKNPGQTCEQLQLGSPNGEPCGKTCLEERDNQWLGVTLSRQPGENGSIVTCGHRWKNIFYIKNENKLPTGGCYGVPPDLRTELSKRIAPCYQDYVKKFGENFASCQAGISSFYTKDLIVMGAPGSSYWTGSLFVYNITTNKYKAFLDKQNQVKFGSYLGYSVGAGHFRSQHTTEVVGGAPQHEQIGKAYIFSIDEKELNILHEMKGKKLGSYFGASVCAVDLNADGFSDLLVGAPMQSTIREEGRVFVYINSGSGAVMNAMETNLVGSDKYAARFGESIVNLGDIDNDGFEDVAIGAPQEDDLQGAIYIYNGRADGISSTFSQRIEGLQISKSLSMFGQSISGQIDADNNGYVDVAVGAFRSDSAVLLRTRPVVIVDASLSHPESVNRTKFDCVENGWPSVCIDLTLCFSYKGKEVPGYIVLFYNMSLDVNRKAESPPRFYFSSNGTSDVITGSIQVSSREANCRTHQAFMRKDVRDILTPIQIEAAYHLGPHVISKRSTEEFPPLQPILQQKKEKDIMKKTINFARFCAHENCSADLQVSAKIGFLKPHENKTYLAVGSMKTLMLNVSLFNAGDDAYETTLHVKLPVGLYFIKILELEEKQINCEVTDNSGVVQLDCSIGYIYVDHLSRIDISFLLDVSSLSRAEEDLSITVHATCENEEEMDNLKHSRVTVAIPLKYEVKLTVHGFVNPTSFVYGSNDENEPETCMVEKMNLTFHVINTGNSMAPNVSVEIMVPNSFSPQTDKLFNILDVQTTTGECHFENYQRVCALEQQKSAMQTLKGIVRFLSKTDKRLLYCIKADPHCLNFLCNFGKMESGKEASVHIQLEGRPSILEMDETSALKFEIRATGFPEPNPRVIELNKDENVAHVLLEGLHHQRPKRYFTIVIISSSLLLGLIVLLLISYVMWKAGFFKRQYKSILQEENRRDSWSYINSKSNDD
- Experiment: Inhibition of Alpha4-beta1 integrin in Jurkat cells
- Format: cell-based
Reported Endpoint: pIC50
# pIC50 is unitless: minus log10 of the molar concentration; print number only

Examples from the recorded data:
Compound Structure String: Cc1ccccc1NC(=O)Nc1ccc(CC(=O)N[C@@H](CC(C)C)c2cc(CCC(=O)O)on2)cc1
Target: Integrin alpha-4/beta-1 (Homo sapiens, UniProt P05556+P13612)
Reported Endpoint: pIC50
Data Value: 7.57

Compound Structure String: Cc1ccccc1NC(=O)Nc1ccc(CC(=O)N[C@@H](CC(C)C)c2ncc(CCC(=O)O)s2)cc1
Target: Integrin alpha-4/beta-1 (Homo sapiens, UniProt P05556+P13612)
Reported Endpoint: pIC50
Data Value: 7.80

Ask: Which pIC50 reading was recorded for the compound Cc1ccccc1NC(=O)Nc1ccc(CC(=O)N[C@@H](CC(C)C)C2=NOC(CCC(=O)O)(CCC(=O)O)C2)cc1 ?
Result: 7.17

Ask: Which pIC50 reading was recorded for the compound Cc1ccccc1NC(=O)Nc1ccc(CC(=O)N[C@@H](CC(C)C)c2ncc(CCC(=O)O)o2)cc1 ?
Result: 7.35

Ask: Which pIC50 reading was recorded for the compound Cc1ccccc1NC(=O)Nc1ccc(CC(=O)N[C@@H](CC(C)C)c2nc(CCC(=O)O)cs2)cc1 ?
Result: 5.69

* * *

- Target: Integrin alpha-4/beta-1 (Homo sapiens, UniProt P05556+P13612)
- Experiment: Inhibition of VCAM binding to Alpha4-beta1 integrin of human eosinophil cell
- Format: protein-complex assay
IC50 values, listed per item
# output: bare number, implied unit µM

Ask: Request: IC50, test system Integrin alpha-4/beta-1 (Homo sapiens, UniProt P05556+P13612), entry COc1cc(CC(=O)N[C@@H](CC(C)C)c2cc(CCC(=O)O)on2)ccc1NC(=O)Nc1ccccc1C
Result: 0.001

Ask: Request: IC50, test system Integrin alpha-4/beta-1 (Homo sapiens, UniProt P05556+P13612), entry Cc1ccccc1NC(=O)Nc1ccc(CC(=O)N[C@@H](CC(C)C)c2ncc(CCC(=O)O)s2)cc1
Result: 0.18

* * *

- Target: Integrin alpha-4/beta-1 (Homo sapiens, UniProt P05556+P13612)
- Experiment: Inhibition of Alpha4-beta1 integrin in Jurkat cells
- Type: cell-based
Reported Endpoint: pIC50
# pIC50 is unitless: minus log10 of the molar concentration; print number only

Examples from the recorded data:
Molecule: COc1cc(CC(=O)N[C@@H](CC(C)C)c2cc(CCC(=O)O)on2)ccc1NC(=O)Nc1ccccc1C
Data Value: 9.16

Molecule: Cc1ccccc1NC(=O)Nc1ccc(CC(=O)N[C@@H](CC(C)C)c2ncc(CC(=O)O)s2)cc1
Data Value: 5.62

Molecule: Cc1ccccc1NC(=O)Nc1ccc(CC(=O)N[C@@H](CC(C)C)c2cc(CCCC(=O)O)on2)cc1
Data Value: 5.74

Here is the next item to consider.
Ask: Request: pIC50, test system Integrin alpha-4/beta-1 (Homo sapiens, UniProt P05556+P13612), entry Cc1ccccc1NC(=O)Nc1ccc(CC(=O)N[C@@H](CC(C)C)C2=NOC(CCC(=O)O)C2)cc1 (some centres undefined)
Result: 7.06

* * *

pIC50 values, listed per item
- Target: Integrin alpha-4/beta-1 (Homo sapiens, UniProt P05556+P13612)
- Experiment: Inhibition of VCAM binding to Alpha4-beta1 integrin of human eosinophil cell
- Assay type: protein-complex assay
# pIC50 is unitless: minus log10 of the molar concentration; print number only

Examples from the recorded data:
Molecule: Cc1ccccc1NC(=O)Nc1ccc(CC(=O)N[C@@H](CC(C)C)C2=NOC(CCC(=O)O)(CCC(=O)O)C2)cc1
pIC50: 6.46
//
Molecule: Cc1ccccc1NC(=O)Nc1ccc(CC(=O)N[C@@H](CC(C)C)c2cc(CCC(=O)O)on2)cc1
pIC50: 6.84

Ask: Which pIC50 reading was recorded for the molecule Cc1ccccc1NC(=O)Nc1ccc(CC(=O)N[C@@H](CC(C)C)c2ncc(CCC(=O)O)o2)cc1 ?
Result: 6.77

Ask: Which pIC50 reading was recorded for the molecule Cc1ccccc1NC(=O)Nc1ccc(CC(=O)N[C@@H](CC(C)C)C2=NOC(CCC(=O)O)C2)cc1 (some centres undefined) ?
Result: 6.31
